Where these numbers come from: paper PMC4537067

List of IC50 tested on EBOV minigenome activity.
Field: numeric (µM). Do not append units.

C[C@@]12C(=O)OC(=O)[C@]1(C)[C@H]1CC[C@@H]2O1: 11.3

Now for the molecule whose IC50 we want.
Query: Requested field: IC50. Item: `CO[C@H]1C=C[C@@]23c4cc5c(cc4CN(C[C@@H]2O)[C@H]3C1)OCO5`
Result: 3.79

---

List of SI (CC50/IC50) tested on EBOV minigenome activity.

CO[C@H]1C=C[C@@]23c4cc5c(cc4CN(C[C@@H]2O)[C@H]3C1)OCO5: >13.196
Nc1ncn([C@@H]2O[C@H](CO)[C@@H](O)[C@H]2O)c(=O)n1: >12.466

Now for the molecule whose SI (CC50/IC50) we want.
Query: API: value(readout= SI (CC50/IC50), system= EBOV minigenome activity, query= `C[C@@]12C(=O)OC(=O)[C@]1(C)[C@H]1CC[C@@H]2O1` )
Result: >4.415
